Taken from patent US20150322474A1.

molecular target: T1, VGAGIGFPAYDG peptide substrate
T1 chain: VGAGIGFPAYDG
quantity-name: Unprocessed ion count (%) (M + H = 1123)
Report the value in % with no unit label.

Query: Give its Unprocessed ion count (%) (M + H = 1123) value. Item: PatGmac wild-type (macrocyclase domain of PatG, residues 492-851) (protein) GEDEIESAGVSASEVESSATKQKVALHPHDLDERIPGLADLHNQTLGDPQITIVIIDGDPDYTLSCFEGAEVSKVFPYWHEPAEPITPEDYAAFQSIRDQGLKGKEKEEALEAVIPDTKDRIVLNDHACHVTSTIVGQEHSPVFGIAPNCRVINMPQDAVIRGNYDDVMSPLNLARAIDLALELGANIIHCAFCRPTQTSEGEEILVQAIKKCQDNNVLIVSPTGNNSNESWCLPAVLPGTLAVGAAKVDGTPCHFSNWGGNNTKEGILAPGEEILGAQPCTEEPVRLTGTSMAAPVMTGISALLMSLQVQQGKPVDAEAVRTALLKTAIPCDPEVVEEPERCLRGFVNIPGAMKVLFGQ
Response: 0

Query: # input protein: PatGmac K594D (protein) GEDEIESAGVSASEVESSATKQKVALHPHDLDERIPGLADLHNQTLGDPQITIVIIDGDPDYTLSCFEGAEVSKVFPYWHEPAEPITPEDYAAFQSIRDQGLDGKEKEEALEAVIPDTKDRIVLNDHACHVTSTIVGQEHSPVFGIAPNCRVINMPQDAVIRGNYDDVMSPLNLARAIDLALELGANIIHCAFCRPTQTSEGEEILVQAIKKCQDNNVLIVSPTGNNSNESWCLPAVLPGTLAVGAAKVDGTPCHFSNWGGNNTKEGILAPGEEILGAQPCTEEPVRLTGTSMAAPVMTGISALLMSLQVQQGKPVDAEAVRTALLKTAIPCDPEVVEEPERCLRGFVNIPGAMKVLFGQ ; wanted: its Unprocessed ion count (%) (M + H = 1123)
Response: 0

Query: Find the recorded Unprocessed ion count (%) (M + H = 1123) belonging to PatGmac K598D (protein) GEDEIESAGVSASEVESSATKQKVALHPHDLDERIPGLADLHNQTLGDPQITIVIIDGDPDYTLSCFEGAEVSKVFPYWHEPAEPITPEDYAAFQSIRDQGLKGKEDEEALEAVIPDTKDRIVLNDHACHVTSTIVGQEHSPVFGIAPNCRVINMPQDAVIRGNYDDVMSPLNLARAIDLALELGANIIHCAFCRPTQTSEGEEILVQAIKKCQDNNVLIVSPTGNNSNESWCLPAVLPGTLAVGAAKVDGTPCHFSNWGGNNTKEGILAPGEEILGAQPCTEEPVRLTGTSMAAPVMTGISALLMSLQVQQGKPVDAEAVRTALLKTAIPCDPEVVEEPERCLRGFVNIPGAMKVLFGQ and report it.
Response: 0

Query: Which Unprocessed ion count (%) (M + H = 1123) reading was recorded for the protein PatGmac triple mutant R589D K594D K598D (protein) GEDEIESAGVSASEVESSATKQKVALHPHDLDERIPGLADLHNQTLGDPQITIVIIDGDPDYTLSCFEGAEVSKVFPYWHEPAEPITPEDYAAFQSIDDQGLDGKEDEEALEAVIPDTKDRIVLNDHACHVTSTIVGQEHSPVFGIAPNCRVINMPQDAVIRGNYDDVMSPLNLARAIDLALELGANIIHCAFCRPTQTSEGEEILVQAIKKCQDNNVLIVSPTGNNSNESWCLPAVLPGTLAVGAAKVDGTPCHFSNWGGNNTKEGILAPGEEILGAQPCTEEPVRLTGTSMAAPVMTGISALLMSLQVQQGKPVDAEAVRTALLKTAIPCDPEVVEEPERCLRGFVNIPGAMKVLFGQ ?
Response: 94
